Catalogue of molecules with associated melting point

input: Give the reported value of melting point for this record: CC(C)Oc1cc(CCCOc2cc(CCC(=O)O)n(C)n2)cc(COc2ccc(Cl)cc2Cl)c1
output: 116 to 120 °C

input: Give the reported value of melting point for this record: CC(C)Oc1ccc(CCCOc2cc(CCC(=O)O)n(C)n2)c(Oc2ncc(Cl)cc2Cl)c1
output: 77 to 78 °C

input: Give the reported value of melting point for this record: COCCOc1ccc(CCCOc2nn(C)cc2CC(=O)O)c(Oc2ncc(C(F)(F)F)cc2Cl)c1
output: 127 to 129 °C

input: Give the reported value of melting point for this record: CC(C)Oc1ccc(CCCOc2cc(CCC(=O)O)n(-c3ccccc3)n2)c(Oc2ccc(C(F)(F)F)cn2)c1
output: 80 to 82 °C

input: Give the reported value of melting point for this record: CC(C)c1nn(Cc2ccc(Cl)cc2Cl)cc1CCCOc1cc(CCC(=O)O)n(-c2ccccc2)n1
output: 105 to 107 °C

---
input: Give the reported value of melting point for this record: CCOc1nn(Cc2ccc(Cl)cc2Cl)cc1CCCOc1cc(CCC(=O)O)n(-c2ccccc2)n1
output: 132 to 133 °C

input: Give the reported value of melting point for this record: CCOc1nn(Cc2ccc(Cl)cc2Cl)cc1CCCOc1cc(CCC(=O)O)n(Cc2ccccc2)n1
output: 84 to 85 °C

input: Give the reported value of melting point for this record: COCOc1cc(CCCOc2ncccc2CC(=O)O)n(Cc2ccc(Cl)cc2Cl)n1
output: 101 to 102 °C

input: Give the reported value of melting point for this record: CC(C)Oc1ccc(CCCOc2cc(CCC(=O)O)n(C(C)C)n2)c(Oc2ncc(C(F)(F)F)cc2Cl)c1
output: 127.5 to 128.5 °C

input: Give the reported value of melting point for this record: CC(C)c1cc(CCCOc2ncccc2CC(=O)O)n(Cc2ccc(C(F)(F)F)cc2Cl)n1
output: 114 to 115 °C

input: Give the reported value of melting point for this record: CC(C)Oc1ccc(CCCOc2cc(CCC(=O)O)n(C)n2)c(OCc2ccc(C(F)(F)F)cc2)c1
output: 88 to 89 °C

// provenance: patent US20080051418A1
